FYI, the data here is from ChEMBL document CHEMBL1201862.

Test system: HOP-18
protocol_details: NCI tumour cell line growth inhibition, 48 h
Active and inactive are the calls of the source. No stated cut-off is given here; in the data, active = GI50 up to about 1.1 µM and inactive = higher.
Entry note: the call must match one of active, inactive

C1CN(P2(N3CC3)=NP(N3CC3)(N3CC3)=NP(N3CC3)(N3CC3)=N2)CCO1 (centres undefined): inactive

Request: What classification did `CC(=O)Nc1ccc(C2C(C(=O)Nc3ccccc3)=C(C)NC(C)=C2C(=O)Nc2ccccc2)cc1` end up with in this test?
Result: inactive

Request: Just curious, what result did `O=c1[nH]c(=O)n([C@H]2CCCO2)cc1F` get here?
Result: inactive

Request: Could you please tell me the result logged for `O=C1c2ccccc2C(=O)c2nc3c(O)cccc3cc21` in this assay?
Result: inactive

Request: Status in this test for Nc1ccn(CC(CO)CC(c2ccccc2)P(=O)(O)O)c(=O)n1 (centres undefined) ?
Result: active

* * *

System: OVCAR-4
protocol_details: NCI tumour cell line growth inhibition, 48 h
Activity calls are given as the source filed them. Cut-off read from the data, not from the text of the source: active = GI50 up to about 1.1 µM and inactive = higher.
So I've got a bunch of compounds here, and I need their GI50 values.

# example entries with known answers
Cc1cc(NS(=O)(=O)c2ccc(Nc3c4ccccc4nc4ccc(C(=O)Nc5ccc(S(N)(=O)=O)cc5)cc34)cc2)no1: > 100 µM (inactive)
O=C(NNC(=O)c1ccncc1)c1ccncc1: > 100 µM (inactive)
O=C1c2cccc([N+](=O)[O-])c2C(=O)N1Cc1ccccc1: > 100 µM (inactive)

# batch size: 2; output GI50 per entry
1. CC(=O)C1(Cc2cccc3ccccc23)S(=O)(=O)OCCOS1(=O)=O
2. N#Cc1c(C#N)c(-c2ccccc2)n(Cc2ccccc2)c1N

Result:
1. 21.7 µM (inactive)
2. > 100 µM (inactive)

* * *

System: OVCAR-4
protocol_details: NCI tumour cell line growth inhibition, 48 h
Calls of active or inactive are those of the source. Rule as the data show it: active = GI50 up to about 1.1 µM and inactive = higher.
Permitted responses: active, inactive

CC(C)NC(=O)CN1CCN(C2=CC(=O)c3c(O)ccc(O)c3C2=O)CC1: inactive
O=c1[nH]c(=O)n([C@H]2CCCO2)cc1F: inactive
CC(=O)Nc1c(S(=O)(=O)c2ccccc2)c(C)c(C)n1CCN(C)C: inactive
N=C(N)NS(=O)(=O)c1ccc(NC(=O)c2ccc3nc4ccccc4c(Nc4ccc(S(N)(=O)=O)cc4)c3c2)cc1: inactive
NS(=O)(=O)c1nnc(NS(=O)(=O)c2cccc3cccnc23)s1: inactive
CC1(C)C=Cc2c(cc3oc4ccc5c(c4c(=O)c3c2O)C=CC(C)(C)O5)O1: inactive
CC[C@@]1(O)C(=O)OCc2c1cc1n(c2=O)Cc2c-1nc1ccccc1c2/C=N\NC(=O)C(N)CC(C)C (stereo not given in full): active
Clc1cccc(Cl)c1C1SCC2=Nc3ccccc3CN21 (stereo not given): inactive

Request: Any idea what this test logged for N=C(N)NCC1CCCCCCN1 (stereo not given) ?
Result: inactive

Request: // param item: COC1C(=O)CCC2(CO2)C1(O)C1(C)OC1CC=C(C)C (stereo not given) ; yields the recorded call
Result: inactive

* * *

Test system: DU-145
protocol_details: NCI tumour cell line growth inhibition, 48 h
Calls of active or inactive are those of the source. Cut-off read from the data, not from the text of the source: active = GI50 up to about 1.1 µM and inactive = higher.
assay_readout: GI50

Examples with their reported GI50 follow.
C=CN(C=C)C(=O)Cn1cc(-c2ccccc2)nn1: > 100 µM (inactive)
N=c1oc2ccc(Cl)cc2cc1C(=O)NC1CCCCC1: 73.8 µM (inactive)
c1ccc(NNN2NC(c3ccccc3)C2c2ccccc2)cc1 (configuration not stated): > 100 µM (inactive)
CNc1nc(N)c(N=O)c(Nc2ccc(Br)cc2)n1: > 100 µM (inactive)
Nc1nc(Cl)cc(NC2(CO)CCC2)n1: > 100 µM (inactive)
O=c1oc2ccccc2cc1-c1nc2ccccc2c(=O)[nH]1: > 100 µM (inactive)

Provide reported GI50 for each item, in the same order as listed.
1. CC1(C)N=C(/C=N/O)C(C)(C)N1O
2. CC(=O)NNc1nc(C)c(C(/C=C/c2ccc([N+](=O)[O-])cc2)=N/NC(N)=O)s1
3. N#CC(C#N)SCc1ccccc1
4. NC(=S)NC/C=C/Cl
5. COc1cc(/C=N/c2ccc(Oc3ccc(Cl)cc3)c(Cl)c2)cc(OC)c1OC
6. CC(C)Cn1cnnc1NS(=O)(=O)c1cc(C(=O)NN)c(Cl)cc1S

Result:
> 100 µM (inactive)
> 100 µM (inactive)
22.9 µM (inactive)
> 100 µM (inactive)
11.7 µM (inactive)
> 10 µM (inactive)

* * *

System: M14
protocol_details: NCI tumour cell line growth inhibition, 48 h
Calls of active or inactive are those of the source. Cut-off read from the data, not from the text of the source: active = GI50 up to about 1.1 µM and inactive = higher.
Kindly supply the reported GI50 values for the records listed here.

The following compounds have reported results that may help.
NC1Cc2ccccc2OC1=O (centres undefined): > 100 µM (inactive)
COc1cc(/C=C2\C[C@H]3[C@@H]4CC=C5C[C@@H](OC(C)=O)CC[C@]5(C)[C@H]4CC[C@]3(C)\C2=N\O)cc(OC)c1OC: 5.73 µM (inactive)
CC1(C)CC(=O)c2c(nc3ccc4ccccc4c3c2-c2ccc(NC(=O)CCCCCCCCC(=O)Nc3ccc(-c4c5c(nc6ccc7ccccc7c46)CC(C)(C)CC5=O)cc3)cc2)C1: > 100 µM (inactive)

Let's switch to this compound now.
Value of GI50 reported for the compound `O=C(O)[C@H](NS(=O)(=O)c1ccc2ccccc2c1)c1ccccc1` is > 100 µM (inactive)

* * *

Answer each item with its documented GI50.
System: OVCAR-5
protocol_details: NCI tumour cell line growth inhibition, 48 h
Active and inactive are the calls of the source. No stated cut-off is given here; in the data, active = GI50 up to about 1.1 µM and inactive = higher.

CC(C)=CCc1c2c(c(O)c3c(=O)c4c(oc13)-c1ccc(O)cc1OC4C=C(C)C)C=CC(C)(C)O2 (stereo unspecified): 20.2 µM (inactive)
C1CN(P2(N3CC3)=NP(N3CC3)(N3CC3)=NP(N3CC3)(N3CC3)=N2)CCO1 (stereo unspecified): > 100 µM (inactive)
COC(=O)N/N=C(\c1nc2ccc(Cl)cc2nc1O)C(O)c1ccc([N+](=O)[O-])cc1 (stereo unspecified): > 100 µM (inactive)
O=C(/C=C/c1ccc(-c2ccccc2)cc1)NCc1ccc(C(=O)NCCc2c[nH]c3ccccc23)cc1: 11.5 µM (inactive)
CC1OC(=O)C2CC3CCCCC3C(/C=C/C3CCCC(C)N3C)C12 (stereo unspecified): > 100 µM (inactive)

Look up GI50 for the entries below, preserving their order.
1. CN(C)Cc1cc(C(C)(C)C)cc(C2CCCCC2)c1O
2. CC1=NOC(=O)/C1=C/c1ccc([N+](=O)[O-])cc1
3. Cc1cccc(N(CCC#N)S(=O)(=O)c2ccccc2)c1
4. O=C(NCCN(CCNC(=O)c1cccc(=O)n1O)CCN(CCNC(=O)c1cccc(=O)n1O)CCNC(=O)c1cccc(=O)n1O)c1cccc(=O)n1O
5. O=C(NCCN(CCNC(=O)c1cccc(=O)n1O)CCNC(=O)c1cccc(=O)n1O)c1cccc(=O)n1O

Result:
1. 17 µM (inactive)
2. > 100 µM (inactive)
3. > 100 µM (inactive)
4. > 100 µM (inactive)
5. > 100 µM (inactive)

* * *

Consider the following compounds; for each one, report its GI50.
Test system: OVCAR-4
protocol_details: NCI tumour cell line growth inhibition, 48 h
The source made the active and inactive calls. Rule as the data show it: active = GI50 up to about 1.1 µM and inactive = higher.

Record GI50 per entry; entries follow.
1. CCN(CC)CCOC(NC(C)=O)(c1ccccc1)c1ccccc1
2. CC1=C(O)C(=O)c2cn(C)cc2C1=O
3. COC(=O)C[C@H](COCc1ccccc1)NC(=O)C[C@H](COCc1ccccc1)NC(=O)C[C@H](COCc1ccccc1)NC(=O)OC(C)(C)C
4. Cc1cc(N)c2cc(NC(=O)Nc3ccc4nc(C)cc(N)c4c3)ccc2n1
5. COc1c(/C=C/C=O)cc2c(c1OC)OCO2

Result:
> 100 µM (inactive)
> 100 µM (inactive)
3.97 µM (inactive)
> 100 µM (inactive)
16.6 µM (inactive)

* * *

Provide the recorded GI50 for the entries that follow.
System: SK-MEL-28
protocol_details: NCI tumour cell line growth inhibition, 48 h
Calls of active or inactive are those of the source. No stated cut-off is given here; in the data, active = GI50 up to about 1.1 µM and inactive = higher.

O=C(/C=C/c1ccc(-c2ccccc2)cc1)NCc1ccc(C(=O)NCCc2c[nH]c3ccccc23)cc1: 39.7 µM (inactive)

Look up GI50 for the entries below, preserving their order.
1. COc1ncc(/C=C2\OC(=O)c3ccccc32)c(OC)n1
2. O=C(NCO)NCOCn1c(=O)n(CO)c(=O)n(CO)c1=O
3. CCOC(=O)CCC(NC(=O)C(N)c1ccc([N+](=O)[O-])cc1)C(=O)NC(CCC(=O)OCC)C(=O)OCC (centres undefined)

Result:
56.1 µM (inactive)
22.1 µM (inactive)
> 100 µM (inactive)

* * *

System: LOX IMVI
protocol_details: NCI tumour cell line growth inhibition, 48 h
Active and inactive are the calls of the source. Rule as the data show it: active = GI50 up to about 1.1 µM and inactive = higher.
Outcome (select one): active, inactive

A selection of reference data follows.
Clc1ccc(Cl)c(SCCCN2CCNCC2)c1: inactive
CCSc1nnc(-c2ccccc2)nc1Cc1ccc(OC)cc1: inactive
CC(=O)O[C@@H]1CC(C)C2CC2C2=C(C(O)OC2O)[C@@H]1C(C)CCC=C(C)C (stereo partly specified): inactive
CC1=NN(c2cccc(Cl)c2)C(=N/c2nc3ccccc3s2)/C1=C\c1cccs1: inactive
O=C1C2C(C(=O)N1c1ccccc1)C1c3ccccc3C2C2C(=O)N(c3ccccc3)C(=O)C21 (stereo unspecified): inactive

Request: Assay outcome for `N#[N+][c-]1c(-c2ccccc2)n[nH]c1=O` : what was it?
Result: inactive
